biological target: PIM3 (human) (UniProt Q86V86); test: radiometric filter-binding kinase assay; settings: compound 10.0 µM
Param label: returns True when residual activity < 70%, returns False otherwise, including exact equality.

[[record]]
compound = "CCCC(CCC)C(=O)O"
assigned_category = "False"

[[record]]
compound = "C=CC(=O)N1CCC[C@@H](n2nc(-c3ccc(Oc4ccccc4)cc3)c3c(N)ncnc32)C1"
assigned_category = "False"

[[record]]
compound = "CN1C(=O)[C@@H](Cc2c[nH]c3ccccc23)NC1=S"
assigned_category = "False"

[[record]]
compound = "O=C(O)c1ccc(-c2c[nH]c3ncc(-c4ccccc4)cc23)cc1C1CCCC1"
assigned_category = "True"

[[record]]
compound = "CCCCCc1ccc(/C=C/[C@H](O)[C@@H](CO)NC)cc1"
assigned_category = "False"

[[record]]
compound = "FC(F)(F)c1ccc(-c2ccc(Oc3cncc4sc(-c5nn[nH]n5)cc34)cc2)cc1"
assigned_category = "True"

[[record]]
compound = "CNc1nc(-c2ccc3c(N)n[nH]c3c2)cc(N2C[C@@H](C(=O)NC3CCCCC3)CC[C@H]2C)n1"
assigned_category = "False"

[[record]]
compound = "O=C1NC(=S)N[C@@H]1Cc1c[nH]c2ccccc12"
assigned_category = "False"


-- ask hey, is residual activity for CC1=C(CO)C(=O)O[C@@H]([C@@H](C)[C@H]2CC[C@H]3[C@@H]4C[C@H]5O[C@]56[C@@H](O)C=CC(=O)[C@]6(C)C4CC[C@]23C)C1 (some centres undefined) lower than 70% or not?
-- reply False

-- ask hey, is residual activity for COc1ccc2c(c1)c1c3c(c4c5ccccc5n(C)c4c1n2CC(O)CN(C)C)C(=O)NC3=O (centres undefined) lower than 70% or not?
-- reply True

-- ask hey, is residual activity for `Cc1ccc2c(c1)C(=O)[C@@]1(O)CCN(c3ccccc3)C1=N2` lower than 70% or not?
-- reply False

-- ask hey, is residual activity for `NC(=O)c1cc(-c2ccnc(NC3CCCCC3)c2)nc(N2CCNCC2)c1` lower than 70% or not?
-- reply True

-- ask hey, is residual activity for `COc1cc(C(=O)N2CCOCC2)c(F)cc1Nc1ncc(C(F)(F)F)c(NC2CC2)n1` lower than 70% or not?
-- reply False

###

Would you mind telling me the reported residual activity of each entry?
target: UniProt:P53350; test: radiometric filter-binding kinase assay; conditions: compound 1.0 µM
Sequence (P53350 whole entry, looked up): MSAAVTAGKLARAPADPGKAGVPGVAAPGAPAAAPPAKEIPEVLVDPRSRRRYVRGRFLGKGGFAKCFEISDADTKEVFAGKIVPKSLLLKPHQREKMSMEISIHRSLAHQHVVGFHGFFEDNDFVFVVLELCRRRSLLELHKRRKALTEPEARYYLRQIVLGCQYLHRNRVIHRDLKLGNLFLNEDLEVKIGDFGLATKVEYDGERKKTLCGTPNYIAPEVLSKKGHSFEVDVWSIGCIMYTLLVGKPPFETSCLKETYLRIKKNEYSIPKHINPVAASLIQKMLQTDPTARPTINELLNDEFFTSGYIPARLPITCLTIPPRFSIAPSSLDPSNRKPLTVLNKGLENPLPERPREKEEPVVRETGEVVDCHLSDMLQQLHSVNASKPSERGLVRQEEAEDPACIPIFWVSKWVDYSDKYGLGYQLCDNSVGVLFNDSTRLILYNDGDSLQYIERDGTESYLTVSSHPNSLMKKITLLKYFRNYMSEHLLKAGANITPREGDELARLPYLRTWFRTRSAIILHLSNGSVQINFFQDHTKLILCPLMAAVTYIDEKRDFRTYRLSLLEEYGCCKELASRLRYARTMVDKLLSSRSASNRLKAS
Answers are plain numbers, in %.

Sample records with residual activity:
[[record]]
compound = "Cn1nc(Nc2ccc(F)cc2)c2c(N)ncnc21"
measured_endpoint = "residual activity"
value = 92

[[record]]
compound = "O=c1c(O)c(-c2ccc(O)c(O)c2)oc2cc(O)c(O)c(O)c12"
measured_endpoint = "residual activity"
value = 107

[[record]]
compound = "CCc1cncnc1N1CCN(Cc2nc3cc(C(F)(F)F)ccc3[nH]2)CC1"
measured_endpoint = "residual activity"
value = 87

[[record]]
compound = "Cc1ccc(Sc2cnc(Nc3cccc(Br)n3)s2)cc1C(=O)N1CCN(C(=O)CN)CC1"
measured_endpoint = "residual activity"
value = 85

[[record]]
compound = "Oc1ccc2ccccc2c1SSc1c(O)ccc2ccccc12"
measured_endpoint = "residual activity"
value = 90


Give residual activity for each listed item.
1. COc1ccc2c(c1)c1c3c(c4c5ccccc5n(C)c4c1n2CC(O)CN(C)C)C(=O)NC3=O (stereo unspecified)
2. O=C(NOC[C@H](O)CO)c1ccc(F)c(F)c1Nc1ccc(I)cc1Cl
3. NC(=O)c1c(NC(=O)C2CC2)sc2c1CCCC2
4. CN(C)C/C=C/C(=O)Nc1cccc(C(=O)Nc2ccc(Nc3nccc(-c4cccnc4)n3)cc2)c1

-- reply
[98, 81, 98, 106]

Give residual activity for each listed item.
1. NC(=O)c1ccc(-c2ccc(Oc3cncc4sc(-c5nn[nH]n5)cc34)cc2)cc1
2. C[C@H]1CCCC(=O)CCC/C=C/c2cc(O)cc(O)c2C(=O)O1

-- reply
[90, 76]
